Measured values drawn from PubChem BioAssay (Tox21) for this set.

Protocol Notes: qHTS assay to identify small molecule antagonists of the estrogen receptor alpha (ER-alpha) signaling pathway using the BG1 cell line - cell viability counter screen (AID 743081);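 note: compound given together with 17beta-estradiol as the ER stimulus; nearly all actives have a fitted effect of over 45% in size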; note: potency is the fitted concentration of half-maximal effect
Settings: BG1Luc4E2 viability, CellTiter-Fluor, 22 h; series mostly up to 70.3 µM
Records with an inconclusive call do not appear. The source made the active and inactive calls. Calls come from the whole dose curve; as a rule, active = well fitted cell-killing curve with a large enough effect in the repeat runs; inconclusive = weak or mixed curves, or effect the other way; inactive = flat fitted curve, though single readings scatter.
Test Readout: Potency

Compound | Potency
CCCCCCCCCCCCCCCCSCC(COC)COP(=O)([O-])OCC[N+](C)(C)C (stereo not given) | inactive
O=[N+]([O-])O[C@@H]1CO[C@H]2[C@@H]1OC[C@@H]2O | inactive
CCN1C(=O)NC(c2ccccc2)C1=O (stereo not given) | inactive
CCCCC(=O)OCC(=O)[C@]1(O)Cc2c(O)c3c(c(O)c2[C@@H](O[C@H]2C[C@H](NC(=O)C(F)(F)F)[C@H](O)[C@H](C)O2)C1)C(=O)c1c(OC)cccc1C3=O | 23.7 µM (active)

// below: Potency requested for another compound
# input # return recorded Potency for entry CC(C(=O)O)c1ccc(C2CCCCC2)c2ccccc12 (stereo not given)
# output inactive
